Target: PD-1/PD-L1 (Homo sapiens (Human), UniProt Q9NZQ7)
Sequence (Q9NZQ7 19-238): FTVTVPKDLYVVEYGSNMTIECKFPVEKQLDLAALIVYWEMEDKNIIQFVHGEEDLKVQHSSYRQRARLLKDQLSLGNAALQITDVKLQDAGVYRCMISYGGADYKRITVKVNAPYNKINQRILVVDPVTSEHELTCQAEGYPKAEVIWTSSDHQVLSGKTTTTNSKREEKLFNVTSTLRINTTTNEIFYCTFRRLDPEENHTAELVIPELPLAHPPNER
Assay: Homogeneous Time-Resolved Fluorescence (HTRF) PD-1/PD-L1 binding assay
Settings: recombinant human PD-1 and PD-L1
Labelling field: enter 1 if recorded IC50 is less than 2 nM. Enter 0 if it equals or exceeds that cut-off.

Answered cases to consult:
{"compound": "CCN1CCc2c(nc(C(=O)Nc3cccc(-c4cccc(NC(=O)c5nc6c(n5C)CCN(CC57CCC(C(=O)O)(CC5)C7)C6)c4Cl)c3Cl)n2C)C1 [Example 176, reference compound]", "system name": "PD-1/PD-L1 (Homo sapiens (Human), UniProt Q9NZQ7)", "category": 0}
{"compound": "Cc1c(Nc2nc(C(F)F)nc3cc(CN4CC(C)(O)C4)cnc23)cccc1-c1cccc(NC(=O)c2nc3c(n2C)CCN(CCC24CCC(C(=O)O)(CC2)C4)C3)c1Cl [Example 14]", "system name": "PD-1/PD-L1 (Homo sapiens (Human), UniProt Q9NZQ7)", "category": 1}
{"compound": "Cn1c(C(=O)Nc2cccc(-c3cccc(NC(=O)c4nc5c(n4C)CCN(CC46CCC(C(=O)O)(CC4)C6)C5)c3Cl)c2Cl)nc2c1CCN(CCO)C2 [Example 180]", "system name": "PD-1/PD-L1 (Homo sapiens (Human), UniProt Q9NZQ7)", "category": 1}
{"compound": "C[C@H](O)CN1CCc2c(nc(C(=O)Nc3cccc(-c4cccc(NC(=O)c5nc6c(n5C)CCN(CC57CCC(C(=O)O)(CC5)C7)C6)c4Cl)c3Cl)n2C)C1 [Example 181, reference compound]", "system name": "PD-1/PD-L1 (Homo sapiens (Human), UniProt Q9NZQ7)", "category": 1}
{"compound": "Cc1c(Nc2nc(C(F)F)nc3cc(CN4CC[C@](C)(O)C4)cnc23)cccc1-c1cccc(NC(=O)c2nc3c(n2C)CCN(CCC24CCC(C(=O)O)(CC2)C4)C3)c1Cl [Example 4]", "system name": "PD-1/PD-L1 (Homo sapiens (Human), UniProt Q9NZQ7)", "category": 1}

Item Cc1c(NC(=O)c2nc3c(n2C)CCN(C)C3)cccc1-c1cccc(NC(=O)c2nc3c(n2C)CCN(CC24CCC(C(=O)O)(CC2)C4)C3)c1Cl [Example 119, reference compound] : IC50 beneath 2 nM, strictly?
0

Item Cc1c(Nc2nc(C(F)F)nc3cc(CN4CCC[C@H]4C)cnc23)cccc1-c1cccc(NC(=O)c2nc3c(n2C)CCN(CCC24CCC(C(=O)O)(CC2)C4)C3)c1Cl [Example 8] : IC50 beneath 2 nM, strictly?
1

Item Cc1c(Nc2nc(C(F)F)nc3cc(CN[C@@H]4CCC[C@@H]4O)cnc23)cccc1-c1cccc(NC(=O)c2nc3c(n2C)CCN(CCC24CCC(C(=O)O)(CC2)C4)C3)c1Cl [Example 9] : IC50 beneath 2 nM, strictly?
1

Item Cc1c(Nc2nc(C(F)F)nc3cc(CN4C[C@@H](O)C[C@H]4C)cnc23)cccc1-c1cccc(NC(=O)c2nc3c(n2C)CCN(CCC24CCC(C(=O)O)(CC2)C4)C3)c1Cl [Example 12] : IC50 beneath 2 nM, strictly?
1

Item Cc1c(Nc2nc(C(F)F)nc3cc(CN4CC[C@H](O)C4)cnc23)cccc1-c1cccc(NC(=O)c2nc3c(n2C)CCN(CCC24CCC(C(=O)O)(CC2)C4)C3)c1Cl [Example 3] : IC50 beneath 2 nM, strictly?
1

Source: patent US11401279B2
